melting point for assorted molecules

Lookup: Quick check: melting point of "CCCN(CCc1ccccc1)CCc1cccc2[nH]c(=S)[nH]c12" ?
Found: 198 to 201 °C

Lookup: Quick check: melting point of "CC(C)c1nc(-c2ccccn2)ncc1-c1ccc(Cl)cc1" ?
Found: 145 °C

Lookup: Quick check: melting point of "CCc1ccc(Cl)c(CC)c1NS(=O)(=O)c1cc(S(=O)(=O)Nc2c(CC)ccc(Cl)c2CC)c2cc(O)ccc2c1" ?
Found: 142 to 144 °C

* * *

melting point for assorted compounds

Lookup: Quick check: melting point of "O=[N+]([O-])c1ccc2c(c1)OCC2" ?
Found: 71 to 72 °C

Continuing:
Lookup: Quick check: melting point of "CCCCCCc1cc2c(s1)NC(=O)CN=C2c1ccccc1Cl" ?
Found: 141 to 143 °C

Lookup: Quick check: melting point of "CC(C)(C)OC(=O)N1CCN(C(=O)OC(C)(C)C)C1=S" ?
Found: 117 to 118 °C

Lookup: Quick check: melting point of "O=c1cc[nH]n1-c1c(Cl)cc(C(F)(F)F)cc1Cl" ?
Found: 228 °C

Lookup: Quick check: melting point of "Cc1ccc(Oc2c(-c3ccc(S(C)(=O)=O)cc3)oc(C(F)F)cc2=O)cc1" ?
Found: 160 °C

Lookup: Quick check: melting point of "Cc1c(C=O)cccc1-n1cccc1" ?
Found: 82 °C

Lookup: Quick check: melting point of "COC(=O)C1(NC(=O)Cc2cc(-c3ccc(Cl)cc3)ccc2C)CCC(F)(F)CC1" ?
Found: 186 °C

Lookup: Quick check: melting point of "O=c1c2c(Cc3ccccc3[N+](=O)[O-])n[nH]c2c2cccnc2n1-c1cccc(C(F)(F)F)c1" ?
Found: 282 to 284 °C

Lookup: Quick check: melting point of "CNC(=O)c1cc(-c2ccc(OC)cc2)nn(CC(=O)NCCO)c1=O" ?
Found: 240 to 241 °C

Lookup: Quick check: melting point of O=C1C(Cc2ccccc2CF)c2ccccc2C12COc1cc3c(cc12)OCCO3 (stereo not given) ?
Found: 188 to 190 °C

Lookup: Quick check: melting point of "OC[C@@H](O)[C@@H](O)[C@H](O)[C@@H](O)CNC1CCCCC1" ?
Found: 144 to 146 °C

Lookup: Quick check: melting point of Cn1cnnc1SC1=C(c2cc(Cl)ccc2O)C2C=C(C(F)(F)F)C=CC2NC1=O (stereo not given) ?
Found: > 310 °C

Lookup: Quick check: melting point of "Cc1cc(C)c2cccc(Cl)c2n1" ?
Found: 66 to 68 °C
